For reference, MIC measured on Trichophyton mentagrophytes ATCC 18748:
One number for each entry, in µg/mL.

Take a look at these entries with their results.
{"MOLECULE": "CCCCCCCC/C=C/C(C)=O [Compound 2, (E)-3-Dodecen-2-one]", "MIC (µg/mL)": 100}
{"MOLECULE": "CCCCCCC/C=C/C(C)=O [Compound 1, (E)-3-Undecen-2-one]", "MIC (µg/mL)": 100}
{"MOLECULE": "CCCCCCCCCCC/C=C/C(C)=O [Compound 6, (E)-3-Pentadecen-2-one]", "MIC (µg/mL)": 800}
{"MOLECULE": "C=CCCCCCCCC/C=C/C(C)=O [Compound 5, (E)-3,13-Tetradecadien-2-one]", "MIC (µg/mL)": 12.5}
{"MOLECULE": "CCCCCCCCCC/C=C/C(C)=O [Compound 4, (E)-3-Tetradecen-2-one]", "MIC (µg/mL)": 12.5}

Attention now shifts to the item below.
Measured MIC, CCCCCCCCC/C=C/C(C)=O [Compound 3, (E)-3-Tridecen-2-one] : 25

Taken from patent US5604262A.
